Tested on: DMS 114 small cell lung
Experiment: NCI tumour cell line growth inhibition, 48 h
endpoint: TGI

Here is how some compounds turned out for TGI.
CN(Cc1cnc2nc(N)nc(N)c2n1)c1ccc(C(=O)N[C@@H](CCC(=O)O)C(=O)O)cc1 : 191 µM
N#Cc1ccccc1C(Cl)(Cl)c1cnccn1 : 43 µM
COc1ccc(C(c2c(O)c3ccccc3n(-c3ccccc3)c2=O)c2c(O)c3ccccc3n(-c3ccccc3)c2=O)cc1 : > 100 µM
COc1ccc(N=NC(C(=O)c2ccccc2)C(=O)c2ccccc2)cc1 : 54.6 µM
[N-]=[N+]=NC(c1cn(C2CC(O)C(CO)O2)c(=O)[nH]c1=O)C(Br)Br (stereo not drawn) : > 100 µM

Kindly note the recorded TGI for CC1=CC(=O)CC2(C)CC[C@@H]3C[C@]12OC3(C)C (stereo partly drawn) , which is > 100 µM

Kindly note the recorded TGI for C#Cc1cccc(N2C(=O)c3c(c(-c4ccccc4)c(-c4ccc(Cc5ccc(-c6c(-c7ccccc7)c7c(c(-c8ccccc8)c6-c6ccccc6)C(=O)N(c6cccc(C#C)c6)C7=O)cc5)cc4)c(-c4ccccc4)c3-c3ccccc3)C2=O)c1 , which is > 100 µM

Kindly note the recorded TGI for O=C1CC2CC3OC3[C@H]3c4cc5c(cc4C(=O)N1C23)OCO5 (stereo partly drawn) , which is > 100 µM

###

Tested on: HOP-62 NSCLC
Experiment: NCI tumour cell line growth inhibition, 48 h; in the data active means GI50 below about 0.43 µM; inactive means the rest
Field 'call' accepts active, inactive

O=c1c2cc(F)ccc2sc2c(N3CCNCC3)nc3ccc(F)cc3c12 : inactive
NS(=O)(=O)c1ccc(-n2nc3c(c2-c2ccc(Cl)cc2)Cc2ccccc2-3)cc1 : inactive
O=C1/C(=C/c2cccc(Br)c2)COc2ccc(O)cc21 : inactive
O=[N+]([O-])c1cc(Cl)c2[nH]c3c(Cl)cc([N+](=O)[O-])cc3c2c1 : inactive
O=C(NOC[C@H](O)CO)c1ccc(F)c(F)c1Nc1ccc(I)cc1F : active

Input: Which outcome was assigned to Cc1nc(-c2ccccc2)n2nc(NCCCN3CCOCC3)ncc12 in this test?
Output: inactive

Input: Which outcome was assigned to CC[C@H](Nc1ncnc2nc[nH]c12)c1nc2cccc(F)c2c(=O)n1-c1ccccc1 in this test?
Output: inactive

Input: Which outcome was assigned to Cn1c(-c2c(N)n(Nc3cccc(Cl)c3)c3nc(C#N)c(C#N)nc23)nc2ccccc21 in this test?
Output: inactive

Input: Which outcome was assigned to Cn1c(C(=O)c2ccncc2)cc2ccccc21 in this test?
Output: inactive

Input: Which outcome was assigned to COc1cc2nc(SCc3cc(OC)c(OC)c(OC)c3)n(Cc3ccccc3)c(=O)c2cc1OC in this test?
Output: inactive

Input: Which outcome was assigned to COc1ccc2c(=O)cc(-c3ccccc3)[nH]c2c1 in this test?
Output: inactive

Input: Which outcome was assigned to OCc1ccc(N2CCc3cccc(F)c3C2)cc1Cl in this test?
Output: active

Input: Which outcome was assigned to CCOC(=O)C(Cc1c[nH]c2c(N(CCO)CCO)cccc12)(NC(C)=O)C(=O)OCC in this test?
Output: inactive

Input: Which outcome was assigned to COc1cc2ncn(-c3cc(OCc4ccccc4C(F)(F)F)c(C(=O)N(C)C)s3)c2cc1OC in this test?
Output: inactive

Input: Which outcome was assigned to COc1cccc(/C(C#N)=C/c2nc3c(N4CCOCC4)nc(Cl)nc3n2C)c1 in this test?
Output: inactive

Input: Which outcome was assigned to COC(=O)C1C(O)CCC2CN3CCc4c([nH]c5ccccc45)C3CC21 (stereo not drawn) in this test?
Output: inactive

Input: Which outcome was assigned to COc1ccc(NC(=O)CSC2=C(Nc3cccc(Br)c3)C(=O)N(Cc3ccccc3)C2=O)cc1Cl in this test?
Output: inactive

Input: Which outcome was assigned to O=S(=O)(NC1=NCCN1C(=S)SN1CCn2c1nsc2=S)c1cccc2ccccc12 in this test?
Output: inactive

Input: Which outcome was assigned to Cc1nc(N)nc2c1CCC(O)S2 (stereo not drawn) in this test?
Output: inactive

Input: Which outcome was assigned to CCCCCCCCOC(=O)CC[C@@H](C)[C@H]1CC[C@H]2[C@@H]3[C@H](OC(=O)CCN)C[C@@H]4C[C@H](OC(=O)CCN)CC[C@]4(C)[C@H]3C[C@H](OC(=O)CCN)[C@]12C in this test?
Output: inactive
